# ASSAY_NAME: protein stability index of a GFP-peptide fusion (yeast GPS) (PSI 1-4); higher = more stable; sorted into four equal gates, so the index is relative within each strain
# CONDITION_PARAMETERS: pdr5∆
Reported protein stability index by item:
// no unit string in output, number only

These solved cases illustrate the format of a correct answer.
ASEYIETLGLKYLGLKP [FAS1]	3.35
TPNVREEKQKSYKFPRG [PUP1]	2.74
GQSSSIQSSLMTNLTYF [YCS4]	2.74
HSGELMRQQSKELQQLQ [SMC1]	2.98

**Query** For the sequence QPSKVSSNVQQPQQQLG [RTT102] , what protein stability index is on record?
**Result** 2.88

**Query** Another sequence to look at: TEKMEEQLDLLSAILDP [MED11]
**Result** 3

**Query** Another sequence to look at: TSLVANENDKIYLLFQS [YDL116W/NUP84]
**Result** 2.59

---

# ASSAY_NAME: protein stability index of a GFP-peptide fusion (yeast GPS) (PSI 1-4); higher = more stable; sorted into four equal gates, so the index is relative within each strain
# CONDITION_PARAMETERS: san1∆
RECORDED_METRIC: protein stability index
// no unit string in output, number only

KNVRFRVLQLLAVIMDN [YCG1]	1.24
PEYLAMYGLTMEWPKDM [ITC1]	2.23
FLLSAMTMASKSLEVVN [NSL1]	1.54
DNKDKEGNAGGDQKTSE [YOR098C/NUP1]	3.19
RILKNVSPNDNNSANNN [YMR153W/NUP53]	2.29
EECGRTIHRSFTICLND [CSN12]	2.84
FFYNISSIHWNNWFSLP [SIN4]	2.03
STVKKKDIVNISIPKTC [REC8]	2.53

**Query** For the sequence NCNIKDFKPPYIYSHVN [SWP82] , what protein stability index is on record?
**Result** 2.45

**Query** Another sequence to look at: AINPGRVAASFSQEALQ [FAS1]
**Result** 2.63

**Query** Another sequence to look at: TTTATPHANPITHAHSL [PGD1]
**Result** 2.88

---

# ASSAY_NAME: protein stability index of a GFP-peptide fusion (yeast GPS) (PSI 1-4); higher = more stable; sorted into four equal gates, so the index is relative within each strain
# CONDITION_PARAMETERS: ubr1∆
RECORDED_METRIC: protein stability index
// no unit string in output, number only

DDVYRPAAESKIFTPNL [SNF5]	3.23

**Query** For the sequence KRNKYAAMLTSENAREI [RRP45] , what protein stability index is on record?
**Result** 2.96

**Query** Another sequence to look at: ASLQQQQQQDLQQQQQV [SNF6]
**Result** 2.69

**Query** Another sequence to look at: LFSLEKPNLNYFKSILL [SWI1]
**Result** 1.86

**Query** Another sequence to look at: IPYAAKLLFQELLSMNI [RET1]
**Result** 1.35

**Query** Another sequence to look at: KTYNKLHYCVSCAIHAR [RPS26A]
**Result** 1.2

---

# ASSAY_NAME: protein stability index of a GFP-peptide fusion (yeast GPS) (PSI 1-4); higher = more stable; sorted into four equal gates, so the index is relative within each strain
# CONDITION_PARAMETERS: san1∆
Reported protein stability index by item:
// no unit string in output, number only

**Query** For the sequence LSGIIQDIYYLAQTLKL [RRI2] , what protein stability index is on record?
**Result** 1.14

**Query** Another sequence to look at: SPVSSVHTANFSERGSN [MED2]
**Result** 2.53

**Query** Another sequence to look at: VEFINKMENFEFLPLSL [SRB8]
**Result** 3.1

**Query** Another sequence to look at: HNKLNITSDALEGITTT [SMC3]
**Result** 3.03

**Query** Another sequence to look at: AELQSNLQVELLSEHDD [YGL100W/SEH1]
**Result** 2.62

**Query** Another sequence to look at: RDLILTEYGRKYNVNIS [PRP8]
**Result** 3.14

**Query** Another sequence to look at: SNQFKRSLATAVATPKA [COR1]
**Result** 1.35

**Query** Another sequence to look at: EEKSNEVKTPKIPLFTF [SIR4]
**Result** 2.57

**Query** Another sequence to look at: LKKLQSDIESANNQEYD [SMC1]
**Result** 3.16

Reference source: the supplement of paper PMC9732359
